Where do the numbers come from? From ChEMBL document CHEMBL3046177.

tested on: Lolium multiflorum; assay: Phytotoxicity against Lolium multiflorum (Italian ryegrass) assessed as inhibition of root development during seeding stage after 120 hr; assay type: functional, organism-based; conditions: read-out: I50
VALUE_KIND: IC50 (µM)
Give bare numbers, in µM.

In the examples that follow, each entry is paired with its recorded IC50.
{"COMPOUND": "C=C(C)[C@H]1Cc2c(ccc(C(C)=O)c2OC(C)=O)O1", "VALUE_KIND": "IC50", "VALUE_MEASURED": 82.1}
{"COMPOUND": "CC(=O)Oc1ccc(C(C)=O)cc1 [4-(ACETATE)ACETOPHENONE]", "VALUE_KIND": "IC50", "VALUE_MEASURED": 75.5}
{"COMPOUND": "CC(=O)c1ccc2c(c1)C[C@H](C(C)C)O2 [10,11-DIHYDRO TREMETONE]", "VALUE_KIND": "IC50", "VALUE_MEASURED": 31.9}

Items follow; give IC50 for each.
1. CC(=O)c1ccc(O)cc1 [4-HYDROXYACETOPHENONE]
2. CC(=O)c1ccc2c(c1O)C[C@H](C1(C)CO1)O2 (stereo not given in full)
3. CC(=O)c1ccc2c(c1)CC(C1(C)CO1)O2 (stereo not given)

Outgoing:
[19, 11.9, 72.6]

----------
system: Lactuca sativa; assay: Phytotoxicity against Lactuca sativa (lettuce) assessed as inhibition of shoot development during seeding stage after 120 hr; format: functional, organism-based; settings: read-out: I50
Answer each item with its documented IC50.
One number for each entry, in µM.

{"COMPOUND": "CC(=O)c1ccc2c(c1O)C[C@H](C1(C)CO1)O2 (stereo not given in full)", "TARGET_OR_SYSTEM": "Lactuca sativa", "VALUE_KIND": "IC50", "VALUE_MEASURED": 10.5}
{"COMPOUND": "CC(=O)c1ccc(O)cc1 [4-HYDROXYACETOPHENONE]", "TARGET_OR_SYSTEM": "Lactuca sativa", "VALUE_KIND": "IC50", "VALUE_MEASURED": 48.5}
{"COMPOUND": "CC(=O)Oc1ccc(C(C)=O)cc1 [4-(ACETATE)ACETOPHENONE]", "TARGET_OR_SYSTEM": "Lactuca sativa", "VALUE_KIND": "IC50", "VALUE_MEASURED": 39.1}

Items follow; give IC50 for each.
1. CC(=O)c1ccc2c(c1)CC(C1(C)CO1)O2 (stereo not given)
2. CC(=O)c1ccccc1
3. C=C(C)[C@H]1Cc2c(ccc(C(C)=O)c2O)O1 [4-HYDROXY TREMETONE]
4. C=C(C)[C@H]1Cc2c(ccc(C(C)=O)c2OC(C)=O)O1

Outgoing:
1: 33; 2: 49.5; 3: 19; 4: 89.5

Items follow; give IC50 for each.
1. C=C(C)[C@H]1Cc2cc(C(C)=O)ccc2O1
2. CC(=O)c1ccc2c(c1)C[C@H](C(C)C)O2 [10,11-DIHYDRO TREMETONE]
3. COc1ccc(C(C)=O)cc1

Outgoing:
1. 45
2. 17.3
3. 49.5

----------
system: Lolium multiflorum; test: Phytotoxicity against Lolium multiflorum (Italian ryegrass) assessed as inhibition of seed respiration during germination after 24 hr; type: functional, organism-based
The source made the active and inactive calls. No cut-off for these calls is given here.
VALUE_KIND: I50

In the examples that follow, each entry is paired with its recorded I50.
{"COMPOUND": "CC(=O)c1ccc2c(c1)C[C@H](C(C)C)O2 [10,11-DIHYDRO TREMETONE]", "VALUE_KIND": "I50", "VALUE_MEASURED": "inactive"}
{"COMPOUND": "CC(=O)c1ccccc1", "VALUE_KIND": "I50", "VALUE_MEASURED": "inactive"}
{"COMPOUND": "CC(=O)c1ccc(Br)cc1", "VALUE_KIND": "I50", "VALUE_MEASURED": "inactive"}
{"COMPOUND": "C=C(C)[C@H]1Cc2cc(C(C)=O)ccc2O1", "VALUE_KIND": "I50", "VALUE_MEASURED": "inactive"}
{"COMPOUND": "CC(=O)Oc1ccc(C(C)=O)cc1 [4-(ACETATE)ACETOPHENONE]", "VALUE_KIND": "I50", "VALUE_MEASURED": "inactive"}

Items follow; give I50 for each.
1. C=C(C)[C@H]1Cc2c(ccc(C(C)=O)c2OC(C)=O)O1
2. CC(=O)c1ccc(O[C@@H]2O[C@H](CO)[C@@H](O)[C@H](O)[C@H]2O)cc1

Outgoing:
1: inactive; 2: inactive
